B1: library; a variant is named by its letters at N, in order (parent)
chain: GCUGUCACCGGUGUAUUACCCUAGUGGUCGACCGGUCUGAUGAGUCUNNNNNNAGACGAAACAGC

Variants of: B1
Experiment: FACS-Seq fitted mean relative fluorescence mCherry/BFP without ligand (log10 relative fluorescence); ligand: hypoxanthine (xanthine aptamer); higher = higher reporter protein expression
Conditions: HEK293T, ligand present: no
Categories are assigned from the measured FACS-Seq fitted mean (log10) using these intervals: range A = under 0.03, range B = from 0.03 up to 0.4, range C = 0.4 and over

>>> df
                                    seq_text  discrete_label
 0  GCUGUCACCGGUGUAUUACCCUAGUGGUCGACCGGUCUGAUGAGUCUUGGAGGAGACGAAACAGC [UGGAGG]         range B
 1  GCUGUCACCGGUGUAUUACCCUAGUGGUCGACCGGUCUGAUGAGUCUGACAGCAGACGAAACAGC [GACAGC]         range B
 2  GCUGUCACCGGUGUAUUACCCUAGUGGUCGACCGGUCUGAUGAGUCUGUAGGCAGACGAAACAGC [GUAGGC]         range B
 3  GCUGUCACCGGUGUAUUACCCUAGUGGUCGACCGGUCUGAUGAGUCUGGUUGCAGACGAAACAGC [GGUUGC]         range A
 4  GCUGUCACCGGUGUAUUACCCUAGUGGUCGACCGGUCUGAUGAGUCUGGGAGAAGACGAAACAGC [GGGAGA]         range A
 5  GCUGUCACCGGUGUAUUACCCUAGUGGUCGACCGGUCUGAUGAGUCUUAGAAAAGACGAAACAGC [UAGAAA]         range B
 6  GCUGUCACCGGUGUAUUACCCUAGUGGUCGACCGGUCUGAUGAGUCUUUGACAAGACGAAACAGC [UUGACA]         range C
 7  GCUGUCACCGGUGUAUUACCCUAGUGGUCGACCGGUCUGAUGAGUCUGCAGGGAGACGAAACAGC [GCAGGG]         range A
 8  GCUGUCACCGGUGUAUUACCCUAGUGGUCGACCGGUCUGAUGAGUCUGACAGUAGACGAAACAGC [GACAGU]         range A
 9  GCUGUCACCGGUGUAUUACCCUAGUGGUCGACCGGUCUGAUGAGUCUAGGGACAGACGAAACAGC [AGGGAC]         range B
10  GCUGUCACCGGUGUAUUACCCUAGUGGUCGACCGGUCUGAUGAGUCUUAAUAUAGACGAAACAGC [UAAUAU]         range B
11  GCUGUCACCGGUGUAUUACCCUAGUGGUCGACCGGUCUGAUGAGUCUAGCCCGAGACGAAACAGC [AGCCCG]         range A
12  GCUGUCACCGGUGUAUUACCCUAGUGGUCGACCGGUCUGAUGAGUCUAAAACUAGACGAAACAGC [AAAACU]         range B
13  GCUGUCACCGGUGUAUUACCCUAGUGGUCGACCGGUCUGAUGAGUCUGGUAUGAGACGAAACAGC [GGUAUG]         range A
14  GCUGUCACCGGUGUAUUACCCUAGUGGUCGACCGGUCUGAUGAGUCUAUUCUCAGACGAAACAGC [AUUCUC]         range C
15  GCUGUCACCGGUGUAUUACCCUAGUGGUCGACCGGUCUGAUGAGUCUGCGGUAAGACGAAACAGC [GCGGUA]         range C
16  GCUGUCACCGGUGUAUUACCCUAGUGGUCGACCGGUCUGAUGAGUCUGUGUUGAGACGAAACAGC [GUGUUG]         range B
17  GCUGUCACCGGUGUAUUACCCUAGUGGUCGACCGGUCUGAUGAGUCUAGGUAUAGACGAAACAGC [AGGUAU]         range C
18  GCUGUCACCGGUGUAUUACCCUAGUGGUCGACCGGUCUGAUGAGUCUACUCCCAGACGAAACAGC [ACUCCC]         range A
19  GCUGUCACCGGUGUAUUACCCUAGUGGUCGACCGGUCUGAUGAGUCUGGUACUAGACGAAACAGC [GGUACU]         range B
20  GCUGUCACCGGUGUAUUACCCUAGUGGUCGACCGGUCUGAUGAGUCUGAGUGGAGACGAAACAGC [GAGUGG]         range A
21  GCUGUCACCGGUGUAUUACCCUAGUGGUCGACCGGUCUGAUGAGUCUGGUCCAAGACGAAACAGC [GGUCCA]         range B
22  GCUGUCACCGGUGUAUUACCCUAGUGGUCGACCGGUCUGAUGAGUCUCCAUAUAGACGAAACAGC [CCAUAU]         range B
23  GCUGUCACCGGUGUAUUACCCUAGUGGUCGACCGGUCUGAUGAGUCUCCAAGUAGACGAAACAGC [CCAAGU]         range B
24  GCUGUCACCGGUGUAUUACCCUAGUGGUCGACCGGUCUGAUGAGUCUUUUGAAAGACGAAACAGC [UUUGAA]         range C
25  GCUGUCACCGGUGUAUUACCCUAGUGGUCGACCGGUCUGAUGAGUCUUAGGGUAGACGAAACAGC [UAGGGU]         range C
26  GCUGUCACCGGUGUAUUACCCUAGUGGUCGACCGGUCUGAUGAGUCUCUAUUAAGACGAAACAGC [CUAUUA]         range C
27  GCUGUCACCGGUGUAUUACCCUAGUGGUCGACCGGUCUGAUGAGUCUGAGAACAGACGAAACAGC [GAGAAC]         range C
28  GCUGUCACCGGUGUAUUACCCUAGUGGUCGACCGGUCUGAUGAGUCUCAAGGCAGACGAAACAGC [CAAGGC]         range A
29  GCUGUCACCGGUGUAUUACCCUAGUGGUCGACCGGUCUGAUGAGUCUGCCCUGAGACGAAACAGC [GCCCUG]         range A
30  GCUGUCACCGGUGUAUUACCCUAGUGGUCGACCGGUCUGAUGAGUCUCUCGGCAGACGAAACAGC [CUCGGC]         range B
31  GCUGUCACCGGUGUAUUACCCUAGUGGUCGACCGGUCUGAUGAGUCUACUAACAGACGAAACAGC [ACUAAC]         range A
32  GCUGUCACCGGUGUAUUACCCUAGUGGUCGACCGGUCUGAUGAGUCUACUAGAAGACGAAACAGC [ACUAGA]         range B
33  GCUGUCACCGGUGUAUUACCCUAGUGGUCGACCGGUCUGAUGAGUCUAACUAUAGACGAAACAGC [AACUAU]         range C
34  GCUGUCACCGGUGUAUUACCCUAGUGGUCGACCGGUCUGAUGAGUCUGAUGCUAGACGAAACAGC [GAUGCU]         range A
35  GCUGUCACCGGUGUAUUACCCUAGUGGUCGACCGGUCUGAUGAGUCUGCAAUAAGACGAAACAGC [GCAAUA]         range B

Ref: the supplement of paper PMC6757056
